# Target: UniProtKB P07333
# Experiment Notes: KINOMEscan competition binding assay for CSF1R
# Set-up: DNA tag for qPCR (not a peptide); host or cells: E. coli/T7 phage or HEK-293
# Experimental Parameters: @ 0.1 uM; read-out: CSF1R kinase binding activity, Percent (%) inhibition
Reported inhibition at 0.1 µM is given for each of the following molecules.
Quick note: unit goes after the number.

1. CCn1cc(OCC(F)(F)F)c(C(=O)Nc2ccc(Oc3ccnc4cc(OC)c(OC)cc34)cn2)n1 [Compound 4] = 98%
2. COc1cc2nccc(Oc3ccc(NC(=O)c4nn(C5CCNC5)cc4OCC(F)(F)F)nn3)c2cc1OC (stereo not shown) [Compound 122] = 19%
3. COCCOc1cn(CC(C)O)nc1C(=O)Nc1ccc(Oc2ccnc3cc(OC)c(OC)cc23)cn1 (stereo not shown) [Compound 150] = 74%

Please turn your attention to the following entry.
Entry under test: COc1cc2nccc(Oc3ccc(NC(=O)c4nn(CC5COC5)cc4OCC(F)(F)F)nc3)c2cc1OC [Compound 92] . Its inhibition at 0.1 µM was 100%

* * *

Property: inhibition at 0.1 µM; scope: individual compounds
# Target: CSF1R (Homo sapiens, UniProt P07333)
# Sequence (P07333 20-972): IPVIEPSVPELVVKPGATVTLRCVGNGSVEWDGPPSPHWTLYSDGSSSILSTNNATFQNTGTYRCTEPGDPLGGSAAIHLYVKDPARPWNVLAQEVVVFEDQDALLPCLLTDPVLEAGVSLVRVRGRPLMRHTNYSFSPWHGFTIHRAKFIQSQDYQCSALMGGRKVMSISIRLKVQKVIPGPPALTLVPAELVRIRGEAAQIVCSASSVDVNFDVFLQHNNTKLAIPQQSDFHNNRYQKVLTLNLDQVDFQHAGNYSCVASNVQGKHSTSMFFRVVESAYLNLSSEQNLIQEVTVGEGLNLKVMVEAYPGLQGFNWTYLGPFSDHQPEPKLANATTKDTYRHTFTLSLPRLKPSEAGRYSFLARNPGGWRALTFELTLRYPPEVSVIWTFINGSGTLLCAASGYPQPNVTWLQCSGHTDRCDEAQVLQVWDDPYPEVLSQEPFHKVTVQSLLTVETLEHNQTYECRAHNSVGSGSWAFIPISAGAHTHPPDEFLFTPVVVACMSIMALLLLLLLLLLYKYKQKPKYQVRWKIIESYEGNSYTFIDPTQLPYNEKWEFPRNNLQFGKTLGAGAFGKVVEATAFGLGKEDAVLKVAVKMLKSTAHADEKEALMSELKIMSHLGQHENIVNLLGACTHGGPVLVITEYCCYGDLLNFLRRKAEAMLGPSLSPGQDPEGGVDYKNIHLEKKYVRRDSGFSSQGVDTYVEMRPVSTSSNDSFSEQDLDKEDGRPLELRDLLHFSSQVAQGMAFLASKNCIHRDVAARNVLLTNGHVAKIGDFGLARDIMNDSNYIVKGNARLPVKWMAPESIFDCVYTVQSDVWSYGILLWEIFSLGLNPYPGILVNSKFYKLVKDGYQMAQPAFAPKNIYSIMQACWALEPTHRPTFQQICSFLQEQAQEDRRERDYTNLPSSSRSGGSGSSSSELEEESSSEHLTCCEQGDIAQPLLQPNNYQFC
# Experiment Notes: KINOMEscan competition binding assay for CSF1R
# Design: DNA tag for qPCR (not a peptide); host or cells: E. coli/T7 phage or HEK-293
# Experimental Parameters: @ 0.1 uM; read-out: CSF1R kinase binding activity, Range

1) COc1cc2nccc(Oc3ccc(NC(=O)c4nn(CCOC5CC5)cc4OCC(F)(F)F)cn3)c2cc1OC [Compound 130] = < 50%
2) COc1cc2nccc(Oc3ccc(NC(=O)c4nn(CC(C)N)cc4OCC(F)(F)F)nc3)c2cc1OC (stereo not shown) [Compound 63] = ≥ 80%
3) CCCn1cc(OCC(F)F)c(C(=O)Nc2ccc(Oc3ccnc4cc(OC)c(OC)cc34)cn2)n1 [Compound 12] = ≥ 80%
4) COc1cc2nccc(Oc3ccc(NC(=O)c4nn(C5CCCC5)cc4OCC(F)(F)F)cc3C)c2cc1OC [Compound 57] = ≥ 80%
5) COc1cc2nccc(Oc3ccc(NC(=O)c4nn(C5CCN(C)C5)cc4OCC(F)(F)F)c(F)c3)c2cc1OC (stereo not shown) [Compound 94] = 50 to 80%
6) COc1cc2nccc(Oc3ccc(NC(=O)c4nn(CC(C)(F)F)cc4OCC(F)(F)F)nc3)c2cc1OC [Compound 64] = ≥ 80%

Reported inhibition at 0.1 µM of CCCn1cc(OCC2CCOCC2)c(C(=O)Nc2ccc(Oc3ccnc4cc(OC)c(OC)cc34)cn2)n1 [Compound 164] : 50 to 80%

* * *

Overview of reported inhibition at 0.1 µM across a group of compounds:
# Target: CSF1R (Homo sapiens)
# Experiment Notes: KINOMEscan competition binding assay for CSF1R
# Design: DNA tag for qPCR (not a peptide); host or cells: E. coli/T7 phage or HEK-293
# Experimental Parameters: @ 0.1 uM; read-out: CSF1R kinase binding activity, Percent (%) inhibition
Give the quantity in %, number only.

1. CCn1cc(OCC2CCC2)c(C(=O)Nc2ccc(Oc3ccnc4cc(OC)c(OC)cc34)cn2)n1 = 94
2. COc1cc2nccc(Oc3ccc(NC(=O)c4nn(C5CCCC5)cc4OCC(F)(F)F)cn3)c2cc1OC = 21
3. COc1cc2nccc(Oc3ccc(NC(=O)c4nn(CCOC5CCC5)cc4OCC(F)(F)F)nc3)c2cc1OC = 96
4. COc1cc2nccc(Oc3ccc(NC(=O)c4nn(C5CC5)cc4OC(C)C)nn3)c2cc1OC = 85
5. COc1cc2nccc(Oc3ccc(NC(=O)c4nn(C5CCN(C)C5)cc4OCC(F)(F)F)cc3C)c2cc1OC (stereo not shown) = 60
6. COc1cc2nccc(Oc3ccc(NC(=O)c4nn(C)cc4OCC(F)(F)F)cc3C)c2cc1OC = 97

Quick note, inhibition at 0.1 µM for COc1cc2nccc(Oc3ccc(NC(=O)c4nn(C5CC5)cc4OCC4CCC4)nn3)c2cc1OC landed at 76
